- experimentalTarget: CGRP receptor (Homo sapiens, UniProt O60894+Q16602)
- Sequence (Q16602 23-461): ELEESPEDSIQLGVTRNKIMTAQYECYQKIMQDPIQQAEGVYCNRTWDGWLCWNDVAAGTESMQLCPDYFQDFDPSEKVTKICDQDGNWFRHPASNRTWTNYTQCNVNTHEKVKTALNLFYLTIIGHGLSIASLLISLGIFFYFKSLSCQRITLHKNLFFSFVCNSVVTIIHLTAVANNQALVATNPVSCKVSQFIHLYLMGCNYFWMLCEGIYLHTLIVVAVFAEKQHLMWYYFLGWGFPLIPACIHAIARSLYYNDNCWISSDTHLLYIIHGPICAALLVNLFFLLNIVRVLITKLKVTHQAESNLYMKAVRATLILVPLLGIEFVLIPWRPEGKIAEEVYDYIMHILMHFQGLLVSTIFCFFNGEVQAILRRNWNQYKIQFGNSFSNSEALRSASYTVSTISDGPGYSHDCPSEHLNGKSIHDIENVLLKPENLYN
- Sequence (O60894 27-148): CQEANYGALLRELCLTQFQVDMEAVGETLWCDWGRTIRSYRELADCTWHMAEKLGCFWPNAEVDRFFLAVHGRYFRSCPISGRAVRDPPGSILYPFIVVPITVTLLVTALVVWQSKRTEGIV
- assayExplanation: CGRP radioligand binding assay ([125I]-CGRP displacement, SK-N-MC homogenate)
- Design: endogenous in cells; host or cells: SK-N-MC cells (homogenate/membrane pellet)
- testParameters: displacement of [125I]-CGRP, room temperature 2 h
Counter-ions that a name gives are not always drawn.

molecule: O=C(C[C@@H]1Cc2cc(Br)c3[nH]ncc3c2CN(CC2CC2)C1=O)N1CCC(c2cc3cccc(F)c3[nH]c2=O)CC1
experimentalTarget: CGRP receptor (Homo sapiens, UniProt O60894+Q16602)
IC50: 10 to 100 nM
--
molecule: O=C(N[C@@H]1Cc2ccc3[nH]ncc3c2CN(Cc2ccccc2)C1=O)N1CCC(N2Cc3ccccc3NC2=O)CC1
experimentalTarget: CGRP receptor (Homo sapiens, UniProt O60894+Q16602)
IC50: 10 to 100 nM
--
molecule: C[C@@H](c1ccccc1)N1Cc2c(ccc3[nH]ncc23)C[C@@H](NC(=O)N2CCC3(CC2)NC(=O)Nc2ccccc23)C1=O
experimentalTarget: CGRP receptor (Homo sapiens, UniProt O60894+Q16602)
IC50: 100 to 1000 nM
--
molecule: O=C(NC1Cc2ccc3[nH]ncc3c2CN(Cc2ccncc2)C1=O)N1CCC(N2Cc3ccccc3NC2=O)CC1 (centres unmarked)
experimentalTarget: CGRP receptor (Homo sapiens, UniProt O60894+Q16602)
IC50: 10 to 100 nM
--
molecule: O=C1Nc2ccccc2C2(CCN(C(=O)NC3Cc4ccc5[nH]ncc5c4CN(Cc4ccncc4)C3=O)CC2)N1 (centres unmarked)
experimentalTarget: CGRP receptor (Homo sapiens, UniProt O60894+Q16602)
IC50: 100 to 1000 nM
--
molecule: CC(C)(C)CN1Cc2c(cc(Cl)c3[nH]ncc23)C[C@@H](CC(=O)N2CCC(c3cc4cnccc4[nH]c3=O)CC2)C1=O
experimentalTarget: CGRP receptor (Homo sapiens, UniProt O60894+Q16602)
IC50: 10 to 100 nM
--
molecule: CN1Cc2cc(OCc3ccccc3)ccc2CC(NC(=O)N2CCC(N3Cc4ccccc4NC3=O)CC2)C1=O (centres unmarked)
experimentalTarget: CGRP receptor (Homo sapiens, UniProt O60894+Q16602)
IC50: > 1000 nM
--
molecule: O=C(N[C@@H]1Cc2ccc3[nH]ncc3c2CN(CCN2CCCCC2)C1=O)N1CCC(N2Cc3ccccc3NC2=O)CC1
experimentalTarget: CGRP receptor (Homo sapiens, UniProt O60894+Q16602)
IC50: 100 to 1000 nM
--
molecule: CC(C)(C)CN1Cc2c(cc(Cl)c3[nH]ncc23)C[C@@H](CC(=O)N2CCC(c3cc4c(F)cccc4[nH]c3=O)CC2)C1=O
experimentalTarget: CGRP receptor (Homo sapiens, UniProt O60894+Q16602)
IC50: 10 to 100 nM
--
molecule: CC(C)(C)CN1Cc2c(ccc3[nH]ncc23)C[C@@H](NC(=O)N2CCC(c3cc(-c4ccccc4)no3)CC2)C1=O
experimentalTarget: CGRP receptor (Homo sapiens, UniProt O60894+Q16602)
IC50: > 1000 nM
--
molecule: CC(C)(C)CN1Cc2c(cc(Cl)c3[nH]ncc23)C[C@@H](CC(=O)N2CCC(c3ccc(-c4ccccc4)c[n+]3[O-])CC2)C1=O
experimentalTarget: CGRP receptor (Homo sapiens, UniProt O60894+Q16602)
IC50: 100 to 1000 nM
--
molecule: CC(C)(C)CN1Cc2c(ccc3[nH]ncc23)CC(NC(=O)N2CCC(N3Cc4ccccc4NC3=O)CC2)C1=O (centres unmarked)
experimentalTarget: CGRP receptor (Homo sapiens, UniProt O60894+Q16602)
IC50: 0.1 to 10 nM
--
molecule: O=C1Nc2ccccc2C2(CCN(C(=O)N[C@@H]3Cc4ccc5[nH]ncc5c4CN(CCN4CCOCC4)C3=O)CC2)N1
experimentalTarget: CGRP receptor (Homo sapiens, UniProt O60894+Q16602)
IC50: > 1000 nM
--
molecule: CC(C)(C)CN1Cc2c(cc(Cl)c3[nH]ncc23)C[C@@H](CC(=O)N2CCC(C3C(=O)c4ccccc4NS3(=O)=O)CC2)C1=O (some centres unmarked)
experimentalTarget: CGRP receptor (Homo sapiens, UniProt O60894+Q16602)
IC50: 10 to 100 nM
--
molecule: C[C@@H](c1ccccc1)N1Cc2c(ccc3[nH]ncc23)C[C@@H](NC(=O)N2CCC(N3Cc4ccccc4NC3=O)CC2)C1=O
experimentalTarget: CGRP receptor (Homo sapiens, UniProt O60894+Q16602)
IC50: 10 to 100 nM
--
molecule: CC(C)c1cc2c(c3cn[nH]c13)CN(CC(F)(F)F)C(=O)[C@H](CC(=O)N1CCC(c3cc4cccc(F)c4[nH]c3=O)CC1)C2
experimentalTarget: CGRP receptor (Homo sapiens, UniProt O60894+Q16602)
IC50: 100 to 1000 nM
--
molecule: CC(C)(C)CN1Cc2c(ccc3[nH]ncc23)C[C@@H](NC(=O)N2CCC(N3Cc4ccccc4CC3=O)CC2)C1=O
experimentalTarget: CGRP receptor (Homo sapiens, UniProt O60894+Q16602)
IC50: 10 to 100 nM
--
molecule: O=C(C[C@@H]1Cc2cc(Cl)c3[nH]ncc3c2CN(Cc2ccncc2)C1=O)N1CCC(N2Cc3cccc(F)c3NC2=O)CC1
experimentalTarget: CGRP receptor (Homo sapiens, UniProt O60894+Q16602)
IC50: 0.1 to 10 nM
--
molecule: Cc1cc2c(c3cn[nH]c13)CN(CC(F)(F)F)C(=O)[C@H](CC(=O)N1CCC(c3cc4cccc(F)c4[nH]c3=O)CC1)C2
experimentalTarget: CGRP receptor (Homo sapiens, UniProt O60894+Q16602)
IC50: 10 to 100 nM
--
molecule: CC(C)(C)CN1Cc2c(cc(Cl)c3[nH]ncc23)C[C@@H](CC(=O)N2CCC(c3cc4ccc(F)nc4[nH]c3=O)CC2)C1=O
experimentalTarget: CGRP receptor (Homo sapiens, UniProt O60894+Q16602)
IC50: > 1000 nM
--
molecule: CC(C)(C)CN1Cc2c(cc(Cl)c3[nH]ncc23)C[C@@H](CC(=O)N2CCC(n3cc(-c4ccccc4)[nH]c3=O)CC2)C1=O
experimentalTarget: CGRP receptor (Homo sapiens, UniProt O60894+Q16602)
IC50: 0.1 to 10 nM
--
molecule: CC(C)(C)CN1Cc2c(cc(Br)c3[nH]ncc23)C[C@@H](CC(=O)N2CCC(c3cc4ccccc4[nH]c3=O)CC2)C1=O
experimentalTarget: CGRP receptor (Homo sapiens, UniProt O60894+Q16602)
IC50: 0.1 to 10 nM
--
molecule: O=C(N[C@@H]1Cc2ccc3[nH]ncc3c2CN(C2CCNC2)C1=O)N1CCC(N2Cc3ccccc3NC2=O)CC1 (some centres unmarked)
experimentalTarget: CGRP receptor (Homo sapiens, UniProt O60894+Q16602)
IC50: 100 to 1000 nM
--
molecule: CC(C)(C)CN1Cc2c(cc(Cl)c3[nH]ncc23)C[C@@H](CC(=O)N2CCC(c3cc4ccc(F)cc4[nH]c3=O)CC2)C1=O
experimentalTarget: CGRP receptor (Homo sapiens, UniProt O60894+Q16602)
IC50: 0.1 to 10 nM
--
molecule: O=C(N[C@@H]1Cc2ccc3[nH]ncc3c2CN(CCN2CCCC2)C1=O)N1CCC(N2Cc3ccccc3NC2=O)CC1
experimentalTarget: CGRP receptor (Homo sapiens, UniProt O60894+Q16602)
IC50: 100 to 1000 nM
--
molecule: Cc1c(N)ccc2c1CN(Cc1ccccc1)C(=O)[C@H](NC(=O)N1CCC(N3Cc4ccccc4NC3=O)CC1)C2 [Example 56, trifluoroacetate]
experimentalTarget: CGRP receptor (Homo sapiens, UniProt O60894+Q16602)
IC50: 100 to 1000 nM
